Where do these numbers come from? They come from ChEMBL document CHEMBL3988442.

# Lookup of reported Percent Effect keyed by entry
test system: Trypanosoma cruzi; assay: Trypanosoma cruzi phosphomannomutase and mannose-1-phosphate guanylyltransferase assay; type: functional; parameters: scale not given: direction of the effect not stated beside the values; conditions: 10 µM
The reply should contain only the number, in %.

The cases that follow already have their Percent Effect on record.
For the molecule shown here, CC(C)(C)c1n[nH]c(C2CN(C(=O)c3cc(Cl)c[nH]3)CCO2)n1 (configuration not stated) , give the reported Percent Effect.
3.99

May I ask what Percent Effect has been recorded for O=C(Nc1nncs1)NC1CCc2ccccc21 (configuration not stated) ?
-6.94

Can you share its Percent Effect? I mean this molecule: `CCCSCC(=O)Nc1ncn(CC(=O)NCc2ccccc2)n1`
3.6

Value lookup for Percent Effect; key = `CCN(Cc1cccc(Cl)c1)Cn1nc(C)c2c(C)onc2c1=O`
-3.68

Give the measured Percent Effect of `Cn1ccc(CN2CCC(COC3CCCC3)CC2)cc1=O` .
2.15

New cases:
Requested read-out: Percent Effect. Entry: `Cc1ncc2c(n1)CN(Cc1noc(C3CC3)n1)CC2`
5.43

Quick check: Percent Effect of Cc1nn(C)c(C)c1C1COCCN1C(=O)c1ccccc1 (configuration not stated) ?
6.74

For `CC(C)OCc1ccc(CNC(=O)CC(F)(F)F)cc1` , what is its reported Percent Effect?
3.83

Find the recorded Percent Effect belonging to `Nc1nccc(NCc2cc3n(n2)CCCN(C2CCCCC2)C3)n1` and report it.
-0.198

Item `O=C(CCCc1ncc(-c2ccccc2)o1)N1CCN(CCO)CC1` has what recorded Percent Effect?
-1.04

# query: Percent Effect of entry Cc1csc(CNC(=O)NCC(O)c2cccc(Cl)c2)n1 (configuration not stated)
3.48

Quick one: Percent Effect for CCOCCOC(C)C(=O)NCc1cn2cc(Br)ccc2n1 (configuration not stated) ?
1.27

Looking for the measured Percent Effect of `O=C(NCCc1nnc2n1CCC2)NCC1(c2cccc(F)c2)CC1` , can you help?
2.43

Quick one: Percent Effect of COc1cc(C)c(CN2CCC3(CC2)C(C(=O)O)CC(=O)N3C)cc1C (configuration not stated) ?
0.682

* * *

molecular target: Protein translocase subunit SecA (Escherichia coli (strain K12)); experiment: Assay to Identify E. coli SecA ATPase Inhibitors; type: functional; design: scale not given: direction of the effect not stated beside the values; conditions: 30 µM
Measured potencies and affinities stand elsewhere.
ENDPOINT_LABEL: Percent Effect (%)
Give the value in % but do not write % after it.

Examples with answers:
Which value of Percent Effect has been reported for CC(C)N(C)C(=O)C1=NOC2(CCN(C(=O)c3ccc(Cl)cc3)C2)C1 (configuration not stated) in the records?
-0.137

Entry Cc1ccc(CNC(C)c2ccc3[nH]c(=O)[nH]c3c2)s1 (configuration not stated) : reported Percent Effect = ?
-3.59

Any idea what its Percent Effect is? The molecule is O=S(=O)(NCC1CCOc2ccccc2C1)N1CCOCC1 (configuration not stated)
-5.96

Continuing:
What value of measured Percent Effect is listed for `Cc1nc(NCCc2ccc(Cl)cc2)cc(C(=O)N2CCOCC2)n1` ?
0.862

I am curious: what Percent Effect value has been reported for `CCc1nnc2n1CCN(C(=O)CN(C)Cc1ccccc1)C2` ?
-2.83

Quick check: Percent Effect of c1cnn(CC2CN(c3ncnc4sccc34)CCO2)c1 (configuration not stated) ?
-4.4

What measured Percent Effect goes with `O=C(c1cncc(N2CCC3(CCNCC3)CC2)n1)N1CCCC1` ?
-4.3

Please look up its Percent Effect: Cc1ccccc1CC1(CO)CCCN(c2ncccc2C#N)C1 (configuration not stated)
-2.63

Given the molecule `CN(C)C(=O)CN1C[C@@H]2CC[C@H](C1)N(Cc1cccc(Cl)c1Cl)C2` , what is its reported Percent Effect?
6.03

Requested read-out: Percent Effect. Entry: `Cc1cccc(C(=O)NCc2ccc(S(N)(=O)=O)cc2)n1`
-5.17

Requested read-out: Percent Effect. Entry: `CC(C)(C)N1CCCN(C(=O)c2csc(S(N)(=O)=O)c2)CC1`
-8.14

May I ask what Percent Effect has been recorded for CCOCC(O)CN1CCN(C(=O)CC(C)C)CC1 (configuration not stated) ?
-3.57

* * *

biological target: Tyrosyl-tRNA synthetase, putative (Trypanosoma cruzi (strain CL Brener)) (UniProt Q4DSP6); assay: Trypanosoma cruzi tyrosyl tRNA synthetase (TcYRS) SOP; format: functional; set-up: scale not given: direction of the effect not stated beside the values; details: 30 µM
Sequence (Q4DSP6 as listed by the source): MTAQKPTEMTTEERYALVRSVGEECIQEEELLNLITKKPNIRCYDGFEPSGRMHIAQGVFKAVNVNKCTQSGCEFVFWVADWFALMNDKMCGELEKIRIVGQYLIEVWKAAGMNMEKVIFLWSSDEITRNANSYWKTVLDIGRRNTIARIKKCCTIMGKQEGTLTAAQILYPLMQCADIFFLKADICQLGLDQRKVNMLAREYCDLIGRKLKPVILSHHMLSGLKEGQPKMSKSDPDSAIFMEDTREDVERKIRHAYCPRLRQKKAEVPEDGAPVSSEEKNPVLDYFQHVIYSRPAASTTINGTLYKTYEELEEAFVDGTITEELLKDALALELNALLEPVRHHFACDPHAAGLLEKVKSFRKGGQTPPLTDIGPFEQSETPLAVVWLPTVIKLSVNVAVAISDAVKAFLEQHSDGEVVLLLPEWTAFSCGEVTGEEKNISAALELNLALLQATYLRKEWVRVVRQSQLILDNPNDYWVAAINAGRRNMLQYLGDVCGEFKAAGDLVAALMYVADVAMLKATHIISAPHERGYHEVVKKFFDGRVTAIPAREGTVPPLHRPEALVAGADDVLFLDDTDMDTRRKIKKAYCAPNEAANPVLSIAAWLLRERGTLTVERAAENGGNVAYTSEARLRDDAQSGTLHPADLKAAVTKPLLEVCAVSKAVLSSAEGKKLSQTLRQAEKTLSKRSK
Catalogue of Percent Effect values
Kindly answer with a numeric value in %, unit omitted.

As a guide, the following entries are already answered.
Which Percent Effect reading was recorded for the molecule Cc1nnc(SCC(=O)N2CCC3(CC2)c2ccccc2CC3O)o1 (configuration not stated) ?
16.1

Form field: reported Percent Effect of CC(C)c1nnc2n1CC(CNCc1ccncc1)CC2 (configuration not stated)
-2.56

# get_value(readout='Percent Effect', item= `COCCN(C)CC(=O)N1C[C@H]2CC[C@@H]1CN(C(=O)c1ccncc1)C2` )
13.6

Need Percent Effect of `CCn1cc(Br)c(C(=O)NCc2cccnc2)n1` , thanks.
16.1

Others:
Give its Percent Effect value. Item: `Cc1nc(CN2CCc3cncnc3C2)oc1C`
12.5

Given the molecule `CN(C)C(=O)Cc1ccc(NC(=O)NC2CCCCC2)cc1` , what is its reported Percent Effect?
7.32

Report Percent Effect for `Cc1cnc(CNC(=O)NCc2cccnc2N(C)C)s1` please.
7.32

Which Percent Effect value is on record for `O=C(Nc1ccc(F)cc1F)Nc1c[nH]c(=O)[nH]c1=O` ?
3.85

* * *

biological target: AMP-activated protein kinase, AMPK (Homo sapiens) (UniProt P54646+O43741+P54619+Q9UGJ0+Q9Y478+Q13131+Q9UGI9); experiment: AMP-dependent Kinase enzyme assay. An in vitro enzyme assay that detects ADP turnover that is directly proportional to AMPK activity. This uses naive AMPK that is activated during the assay with MK-8722; assay type: functional; parameters: scale not given: direction of the effect not stated beside the values; conditions: 30 µM
ENDPOINT_LABEL: Percent Effect (%)
I only need the number, in %, no unit after it.

Known results for compounds:
Which value of Percent Effect has been reported for `N#Cc1ccc(CN2CCN(C(=O)c3cc(C4CC4)[nH]n3)CC2)cc1` in the records?
-5.26

Any idea what its Percent Effect is? The compound is `CC(=O)NCC(=O)N1CC[C@H](OCC2CC2)[C@@H]1Cc1cccnc1`
-3.45

Name the recorded Percent Effect for Cc1cc(C)n(CC2CCCN2C(=O)c2cnn(C)c2C2CC2)n1 (configuration not stated) .
11.2

What value of Percent Effect has been reported for the following compound? COc1ccccc1C(=O)N1Cc2cc(C)ccc2OCC1CN(C)C (configuration not stated)
11.3

Which Percent Effect is reported for this compound? `CC(C)(O)C1CCN(C(=O)Nc2nc(-c3ccccc3)ns2)CC1`
-2.64

More entries:
Look up Percent Effect for this compound: CSCC(CCO)NC(=O)Nc1cccc(Br)c1 (configuration not stated)
8.84

Name the recorded Percent Effect for c1cnnc(N2CCCC2CNCc2cc[nH]n2)c1 (configuration not stated) .
4.85

Entry under review: `CC(C)(C)c1ncc2c(n1)CN(C(=O)c1ccncc1)C2` . Reported Percent Effect?
-0.32

Please give the measured Percent Effect for this compound: c1ccc2sc(CN3CCOC(Cn4cncn4)C3)nc2c1 (configuration not stated)
-9.39

Param item = Cn1cc(C2CCCN2C(=O)c2ccc(Br)o2)cn1 (configuration not stated) ; retrieve measured Percent Effect.
2.02

Which Percent Effect is reported for this compound? `Fc1ccc(CN2CCCN(Cc3cscn3)CC2)cc1`
-0.0725

Find the recorded Percent Effect belonging to Cc1nn(C)c(C)c1C1COCCN1C(=O)c1ccccc1 (configuration not stated) and report it.
-2.73

* * *

test system: Trypanosoma cruzi; test: Trypanosoma cruzi phosphomannomutase and mannose-1-phosphate guanylyltransferase assay; type: functional; design: scale not given: direction of the effect not stated beside the values; details: 10 µM
ENDPOINT_LABEL: Percent Effect (%)
Provide the reading as a plain figure in %.

Given the entry `N#Cc1ccc(C(=O)NCCCNc2ccc(C(F)(F)F)cn2)cc1` , report its measured Percent Effect.
-7.52

Can you share its Percent Effect? I mean this compound: CCCS(=O)(=O)c1ncc(CN2CCC(CO)CC2)n1CC1CCCO1 (stereo unspecified)
-5.34

// returns reported Percent Effect for input NC(=O)c1ccc(OCC(=O)N2CCCC(n3cccn3)C2)cc1 (stereo unspecified)
-2.06

Look at this compound and give its reported Percent Effect. O=C(c1cccc(F)c1)N1CCOC(c2nc(-c3ncccn3)no2)C1 (stereo unspecified)
-4.53

* * *

molecular target: Protein translocase subunit SecA (Escherichia coli (strain K12)) (UniProt P10408); assay: Assay to Identify E. coli SecA ATPase Inhibitors; format: functional; design: scale not given: direction of the effect not stated beside the values; conditions: 30 µM
Sequence (P10408 whole entry): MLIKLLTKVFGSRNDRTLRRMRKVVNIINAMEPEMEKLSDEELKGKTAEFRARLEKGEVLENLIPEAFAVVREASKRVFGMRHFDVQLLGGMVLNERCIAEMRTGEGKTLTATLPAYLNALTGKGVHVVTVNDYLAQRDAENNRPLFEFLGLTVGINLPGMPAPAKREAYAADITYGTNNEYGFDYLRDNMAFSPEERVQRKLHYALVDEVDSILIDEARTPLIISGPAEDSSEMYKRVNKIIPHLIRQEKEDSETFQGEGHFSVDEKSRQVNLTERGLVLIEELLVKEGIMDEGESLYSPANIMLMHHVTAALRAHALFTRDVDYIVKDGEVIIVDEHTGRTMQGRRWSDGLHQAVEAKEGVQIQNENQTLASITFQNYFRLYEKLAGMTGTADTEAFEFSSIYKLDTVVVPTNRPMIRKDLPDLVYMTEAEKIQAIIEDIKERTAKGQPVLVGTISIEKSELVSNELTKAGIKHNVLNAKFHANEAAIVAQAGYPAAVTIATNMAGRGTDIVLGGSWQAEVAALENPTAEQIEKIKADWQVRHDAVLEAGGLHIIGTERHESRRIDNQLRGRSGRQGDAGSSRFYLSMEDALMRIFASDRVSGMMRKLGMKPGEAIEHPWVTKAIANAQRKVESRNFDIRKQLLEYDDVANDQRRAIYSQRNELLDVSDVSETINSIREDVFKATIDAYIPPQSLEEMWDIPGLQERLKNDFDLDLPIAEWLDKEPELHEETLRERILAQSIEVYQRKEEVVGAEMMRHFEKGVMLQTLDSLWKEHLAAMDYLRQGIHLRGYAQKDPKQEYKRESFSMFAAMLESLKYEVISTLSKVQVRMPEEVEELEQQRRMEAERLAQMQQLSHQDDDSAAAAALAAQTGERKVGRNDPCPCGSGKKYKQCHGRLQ
Results with a measured potency or affinity are listed apart.
ENDPOINT_LABEL: Percent Effect (%)
# number only, unit % dropped from output

Some molecules with recorded Percent Effect:
Kindly state the measured Percent Effect obtained for CC1CN(C(=O)c2ccn(-c3cccc(Cl)c3)n2)CCO1 (stereo unspecified) with Protein translocase subunit SecA (Escherichia coli (strain K12)) (UniProt P10408).
-7.39

Which Percent Effect is reported with Protein translocase subunit SecA (Escherichia coli (strain K12)) (UniProt P10408) for this entry: `Cc1cc(NC(=O)CN2CCc3nn(C)c(=O)cc3C2)on1` ?
-3.81

***
Record lookup: for Protein translocase subunit SecA (Escherichia coli (strain K12)) (UniProt P10408), what Percent Effect belongs to Cc1cccc(-c2[nH]ncc2CNCC2CCN(CC(C)O)CC2)c1 (stereo unspecified) ?
-3.75

Under Protein translocase subunit SecA (Escherichia coli (strain K12)) (UniProt P10408): Percent Effect value of Cc1ccc(N2CCCN(C(=O)C(C(C)C)n3cncn3)CC2)nn1 (stereo unspecified) ?
-1.22

Protein translocase subunit SecA (Escherichia coli (strain K12)) (UniProt P10408) / Percent Effect / CC(C)C(Sc1nnnn1C1CC1)C(=O)NCc1cccnc1 (stereo unspecified) : value?
-3.26

Field: Percent Effect (Protein translocase subunit SecA (Escherichia coli (strain K12)) (UniProt P10408)). Entry: `O=C(CN1CCc2ccccc21)Nc1ccc(OC(F)F)cc1`
-2
